Each recorded value in this set is attributed to patent US20050096327A1.

Documented melting point across a set of molecules
Where a name gives a salt, the structure may show the parent alone.

Some solved cases for reference:
Cl.N[C@H]1CCCN(c2nc(-c3ccccc3F)c3ccccc3n2)C1 :: 288 to 289 °C
Fc1ccc2c(-c3ccccc3F)nc(N3CCNCC3)nc2c1 :: 147 to 148 °C
c1ccc(-c2nc(N3CC4CNCC4C3)nc3ccccc23)cc1 (stereo not shown) (as salt: salt) :: 267 to 270 °C
CC1CN(c2nc(-c3ccccc3)c3ccccc3n2)CCN1 (stereo not shown) :: 107 to 108 °C
Cl.N[C@@H]1CCN(c2nc(-c3ccccc3)c3ccccc3n2)C1 :: 261 to 265 °C

Reported melting point ( Cl.Fc1ccccc1-c1nc(N2CC3CNCC3C2)nc2ccccc12 (stereo not shown) ) = 270 to 278 °C

Reported melting point ( `Cc1ccccc1-c1nc(N2CCN(C)CC2)nc2ccccc12` ) = 91 to 94 °C

Reported melting point ( `Cl.N[C@H]1CCN(c2nc(-c3ccccc3F)c3ccccc3n2)C1` ) = 285 to 287 °C

Reported melting point ( C[C@@H]1CN(c2nc(-c3ccccc3)c3ccccc3n2)CCN1 (as salt: salt) ) = 241 to 242 °C

Reported melting point ( `CN1CCN(c2nc(-c3ccccc3)c3ccccc3n2)CC1` ) = 101 to 122 °C
